experimental-target: T1, EsCas13d, nuclease-dead (Eubacterium siraeum, UniProt B0MS50, R295A;H300A;R849A;H854A)
T1 sequence: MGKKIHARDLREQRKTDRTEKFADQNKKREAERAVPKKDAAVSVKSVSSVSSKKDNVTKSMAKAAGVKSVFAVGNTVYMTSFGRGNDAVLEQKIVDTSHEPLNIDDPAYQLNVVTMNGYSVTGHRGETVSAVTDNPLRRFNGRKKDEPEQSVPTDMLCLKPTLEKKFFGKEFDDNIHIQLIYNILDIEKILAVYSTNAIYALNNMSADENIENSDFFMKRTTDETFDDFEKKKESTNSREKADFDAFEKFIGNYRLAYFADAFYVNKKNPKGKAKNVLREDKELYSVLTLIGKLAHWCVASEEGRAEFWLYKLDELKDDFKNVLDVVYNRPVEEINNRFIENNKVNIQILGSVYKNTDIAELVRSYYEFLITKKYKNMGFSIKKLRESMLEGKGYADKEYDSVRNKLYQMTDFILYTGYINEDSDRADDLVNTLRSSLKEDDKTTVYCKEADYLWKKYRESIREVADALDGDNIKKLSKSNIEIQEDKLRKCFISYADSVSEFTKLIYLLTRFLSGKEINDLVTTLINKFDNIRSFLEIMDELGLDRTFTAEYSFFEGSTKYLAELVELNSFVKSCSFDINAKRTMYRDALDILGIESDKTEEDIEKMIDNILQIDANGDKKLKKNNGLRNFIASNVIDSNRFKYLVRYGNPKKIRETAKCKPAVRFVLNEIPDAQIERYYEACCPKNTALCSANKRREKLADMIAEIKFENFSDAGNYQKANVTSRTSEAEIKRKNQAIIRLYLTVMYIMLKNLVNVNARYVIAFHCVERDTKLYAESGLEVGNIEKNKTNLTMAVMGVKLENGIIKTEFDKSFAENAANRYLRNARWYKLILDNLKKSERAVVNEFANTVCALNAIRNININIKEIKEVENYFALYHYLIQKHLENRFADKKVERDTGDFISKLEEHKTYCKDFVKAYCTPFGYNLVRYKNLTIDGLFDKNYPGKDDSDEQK
test-summary: crRNA (strand 1, pre-loaded); Mg2+; 40 mM Tris-HCl pH 7.5, 150 mM NaCl, 6 mM MgCl2, 1 mM DTT, 0.1% Tween-20, 0.2 mg/ml BSA; 25 C; 10 min per concentration, then washed
setup-conditions: tags: His6-TwinStrep-SUMO cleaved; N-terminal SNAP kept (SNAP-Surface 488); label: 3' end held by stalled T7 RNA polymerase
Give Kd for every item shown.
The figure you give is taken to be in nM; do not add the unit.

Dear colleague, I am looking for the recorded Kd of the following binder: target 1 A9C,A20U (mixed) RNA 1: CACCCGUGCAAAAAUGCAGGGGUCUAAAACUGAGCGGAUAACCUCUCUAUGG RNA 2: GGGAAUGGAUCCACAUCUACGAAUUCGUACCUUAGAGAGGUUCUCCGCUCACCGAGAUCGGAAGAGCACACGU 80

What do you have for target 1 MT 5'PFS GCC 3'PFS AAA (mixed) RNA 1: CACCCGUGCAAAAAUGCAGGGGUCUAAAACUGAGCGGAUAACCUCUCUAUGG RNA 2: GGGAAUGGAUCCACAUCUACGAAUUCGCCCCAUAGAGAGGUUAUCCGCUCAAAAAGAUCGGAAGAGCACACGU ? 59.5

Also check target 1 C4G (mixed) RNA 1: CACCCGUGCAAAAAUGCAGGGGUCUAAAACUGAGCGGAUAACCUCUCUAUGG RNA 2: GGGAAUGGAUCCACAUCUACGAAUUCGUACCAUAGAGAGGUUAUCCGGUCACCGAGAUCGGAAGAGCACACGU 5.3

Request: target 2 MT 5'PFS ACG 3'PFS AUU (mixed) RNA 1: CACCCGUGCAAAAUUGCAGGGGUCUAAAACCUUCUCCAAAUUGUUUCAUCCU RNA 2: GGGAAUGGAUCCACAUCUACGAAUUCACGAGGAUGAAACAAUUUGGAGAAGAUUAGAUCGGAAGAGCACACGU 5.6
